Source: patent US9815851B2

# targetOrTestSystem: RORγ (UniProt P51449)
# Sequence (P51449 1-518): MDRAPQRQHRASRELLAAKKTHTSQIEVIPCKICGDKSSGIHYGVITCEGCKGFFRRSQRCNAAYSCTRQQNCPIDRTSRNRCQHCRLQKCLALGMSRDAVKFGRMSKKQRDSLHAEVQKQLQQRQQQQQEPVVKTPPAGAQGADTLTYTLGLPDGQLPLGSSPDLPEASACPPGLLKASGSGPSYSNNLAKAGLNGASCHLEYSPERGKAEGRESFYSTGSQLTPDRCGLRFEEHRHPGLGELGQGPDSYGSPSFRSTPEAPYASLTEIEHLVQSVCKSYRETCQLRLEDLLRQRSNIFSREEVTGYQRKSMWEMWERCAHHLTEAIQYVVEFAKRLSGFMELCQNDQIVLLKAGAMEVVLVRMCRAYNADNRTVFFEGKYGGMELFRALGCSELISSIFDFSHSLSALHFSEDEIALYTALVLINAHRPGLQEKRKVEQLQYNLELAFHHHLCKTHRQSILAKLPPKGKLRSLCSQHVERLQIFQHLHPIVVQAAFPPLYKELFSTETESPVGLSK
# experimentalProtocol: RORγ Gal4 Reporter Gene Assay in 293T cells (firefly and renilla luciferase)
# Type: cell-based, human
# measurementParameters: third value of the cell; Gal4 reporter gene assay in 293T cells, renilla normalised luciferase
# pIC50 (REN) annotations
# output: bare number, no unit

| compound | pIC50 (REN) |
| --- | --- |
| Cc1c(C(=O)N[C@H]2C[C@H](C(=O)O)C2)cc(-c2cc(C3(C)CC3)nc(C(C)(C)C)n2)n1CC1CCCCC1 [17/311] | 7.2 |
| Cc1c(C(=O)NCCCCO)cc(-c2cc(C(C)(C)C)cc(C(C)(C)C)c2)n1CC1CCCCC1 [1/66] | 6.8 |
| Cc1c(C(=O)NC2CCOCC2)cc(-c2cc3c(c(C(C)(C)C)c2)OCCC3O)n1CC1CCCCC1 (stereo not shown) [17/105] | 6.3 |

Field pIC50 (REN) (RORγ (UniProt P51449)), entry Cc1c(C(=O)N[C@H]2C[C@H](C(=O)O)C2)cc(-c2ccc(-c3ccnn3C(C)C)c(C(C)(C)C)c2)n1CC1CCCCC1 [26/5] : 8.0

Bench note, RORγ (UniProt P51449): Cc1c(C(=O)NCCC(C)(C)C(=O)O)cc(-c2ccc(S(=O)(=O)N[C@@H](C)C(F)(F)F)c(C(F)(F)F)c2)n1CC1CCCCC1 [17/150] , pIC50 (REN) reads 8.2

pIC50 (REN) value, target or system RORγ (UniProt P51449), for CCC(C)(C)NS(=O)(=O)c1ccc(-c2cc(C(=O)NCC(C)(C)O)c(C)n2CC2CCCCC2)cc1C(C)(C)C [9/11] : 7.8

Readout pIC50 (REN) for Cc1c(C(=O)N[C@H]2C[C@H](C(=O)O)C2)cc(-c2cc(OC(F)(F)F)cc(C(=O)NC(C)(C)C)c2)n1CC1CCCCC1 [17/351] , test system RORγ (UniProt P51449), was 6.9

====

Measured pIC50 (FF), listed per entry.
# targetOrTestSystem: RORγ (UniProt P51449)
# Sequence (P51449 1-518): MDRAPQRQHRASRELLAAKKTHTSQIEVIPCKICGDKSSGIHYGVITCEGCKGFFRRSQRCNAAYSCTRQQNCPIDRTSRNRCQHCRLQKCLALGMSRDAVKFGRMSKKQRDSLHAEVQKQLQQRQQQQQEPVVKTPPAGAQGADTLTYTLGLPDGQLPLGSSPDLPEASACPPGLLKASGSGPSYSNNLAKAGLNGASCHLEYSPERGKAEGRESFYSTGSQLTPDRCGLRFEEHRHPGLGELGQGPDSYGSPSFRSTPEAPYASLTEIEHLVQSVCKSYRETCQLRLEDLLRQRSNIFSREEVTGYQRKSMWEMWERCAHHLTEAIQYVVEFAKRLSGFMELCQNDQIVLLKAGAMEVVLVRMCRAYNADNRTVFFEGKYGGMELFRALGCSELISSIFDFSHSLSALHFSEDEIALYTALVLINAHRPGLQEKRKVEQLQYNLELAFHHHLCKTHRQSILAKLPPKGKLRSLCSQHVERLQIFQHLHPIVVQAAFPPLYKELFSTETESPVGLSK
# experimentalProtocol: RORγ Gal4 Reporter Gene Assay in 293T cells (firefly and renilla luciferase)
# Format: cell-based, human
# measurementParameters: second value of the cell; Gal4 reporter gene assay in 293T cells, firefly luciferase
Response field accepts a number only; no unit should be typed.

Worked cases, pIC50 (FF) given:
| molecule | targetOrTestSystem | pIC50 (FF) |
| --- | --- | --- |
| Cc1c(C(=O)NC2CCNC(=O)C2)cc(-c2ccc(S(=O)(=O)NC(C)(C)C)c(C(C)(C)C)c2)n1CC1CCCCC1 (centres unmarked) | RORγ (UniProt P51449) | 6.9 |
| Cc1c(C(=O)NC2COC2)cc(-c2cc(C(C)(C)C)c3c(c2)C2(CCO3)CC2)n1CC1CCCCC1 | RORγ (UniProt P51449) | 7.2 |

Recorded pIC50 (FF) (molecule Cc1c(C(=O)NC2CCOCC2)cc(-c2ccc(S(=O)(=O)NC(C)(C)C)c(C(F)(F)F)c2)n1CC1CCCC1 ): 7.5

Entry under test: Cc1c(C(=O)NCC(C)(C)O)cc(-c2cc(OC(F)(F)F)cc(C(=O)NC(C)(C)C)c2)n1CC1CCCCC1 . Its pIC50 (FF) was 6.8

Record summary for Cc1c(C(=O)NCC2(C(N)=O)CCOCC2)cc(-c2ccc(S(=O)(=O)NC(C)(C)C)c3ccccc23)n1CC1CCCCC1 : reported pIC50 (FF) = 7.9

So for Cc1c(C(=O)NC2COC2)cc(-c2ccc(C(=O)N3CCCCC3)c(C(C)(C)C)c2)n1CC1CCCCC1 , the logged pIC50 (FF) turned out to be 6.8

So for Cc1c(C(=O)NCC(C)(C)NC(=O)C(C)O)cc(-c2cc(C(C)(C)C)cc(C3(C)CC3)c2)n1CC1CCCCC1 (centres unmarked) , the logged pIC50 (FF) turned out to be 7.6

Form: molecule = Cc1c(C(=O)NCC(C)(C)O)cc(-c2ccc(S(=O)(=O)NC(C)(C)C)c3ccccc23)n1CC1CCCC(F)C1 (centres unmarked) ; pIC50 (FF) = 7.2

Looking up Cc1c(C(=O)NC2CCOCC2)cc(-c2cc3c(c(C(C)(C)C)c2)OCCC3=NO)n1CC1CCCCC1 , I see its pIC50 (FF) listed as 6.1

Consider Cc1c(C(=O)NC2CCOCC2)cc(-c2ccc(-c3cnc(NC(C)C)nc3)c(C(C)(C)C)c2)n1CC1CCCCC1 . Its measured pIC50 (FF) is 6.6

// pIC50 (FF) lookup, molecule = Cc1c(C(=O)NCC2(O)CCOCC2)cc(-c2cc(C(C)(C)O)cc(C3(C)CC3)c2)n1CC1CCCCC1 , result: 7.2

The recorded pIC50 (FF) for Cc1c(C(=O)NS(C)(=O)=O)cc(-c2cc(C(C)(C)C)cc(C(C)(C)C)c2)n1CC1CCCCC1 is 5.9

// pIC50 (FF) value for Cc1c(C(=O)N2CC(C(=O)O)C2)cc(-c2cc(C(C)(C)C)c3c(c2)C2(CCO3)CC2)n1CC1CCCCC1 : 6.7

Reported pIC50 (FF) ( Cc1c(C(=O)N[C@H]2C[C@H](C(=O)O)C2)c(Cl)c(-c2cc(C(C)(C)O)cc(C3(C)CC3)c2)n1CC1CCCCC1 ) = 6.8

# pIC50 (FF) of Cc1c(C(=O)NCCCCC(=O)O)cc(-c2cc(C(C)(C)C)cc(C(C)(C)C)c2)n1CC1CCCCC1 = 7.2

Entry Cc1c(C(=O)NCCS(C)(=O)=O)cc(-c2ccc(S(=O)(=O)NC(C)(C)C)c(C(C)(C)C)c2)n1CC1CCCCC1 ; pIC50 (FF) = 6.8

====

Each item that follows carries a reported pIC50 (FF).
# targetOrTestSystem: RORγ (UniProt P51449)
# experimentalProtocol: RORγ Gal4 Reporter Gene Assay in 293T cells (firefly and renilla luciferase)
# Type: cell-based, human

Here are 5 compounds together with their reported answers.
| compound | targetOrTestSystem | result |
| --- | --- | --- |
| Cc1c(C(=O)NCCCCCS(C)(=O)=O)cc(-c2cc(C(C)(C)C)c3c(c2)C2(CCO3)CC2)n1CC1CCCCC1 | RORγ (UniProt P51449) | 6.2/6.7/6.7 |
| Cc1c(C(=O)NC2CCOCC2)cc(-c2cc(C(C)(C)O)cc3ccccc23)n1CC1CCCCC1 | RORγ (UniProt P51449) | 6.3/6.4/6.2 |
| Cc1c(C(=O)NCC(=O)N(C)C)cc(-c2cc(C(C)(C)C)cc(C(C)(C)C)c2)n1CC1CCCCC1 | RORγ (UniProt P51449) | 6.2/6.7/6.7 |
| Cc1c(C(=O)N(C)CC2(O)CCOCC2)cc(-c2cc(C(C)(C)C)c3c(c2)C2(CCO3)CC2)n1CC1CCCCC1 | RORγ (UniProt P51449) | 6.4/6.9/6.8 |
| COC(C)(C)CNC(=O)c1cc(-c2cc(C(C)(C)C)cc(C(C)(C)C)c2)n(CC2CCCCC2)c1C | RORγ (UniProt P51449) | 6.9/6.9/6.9 |

Looking up Cc1c(C(=O)NC2C[S+]([O-])C2)cc(-c2ccc(S(=O)(=O)NC(C)(C)C)c(C(C)(C)C)c2)n1CC1CCCCC1 (stereo not drawn) , I found its pIC50 (FF) recorded as 6.1/6.5/6.5

Documented pIC50 (FF) of Cc1c(C(=O)NC2CCOCC2)cc(-c2cc(C(=O)NC(C)(C)C)cc(C(=O)NC(C)(C)C)c2)n1CC1CCCCC1 : 5.2/5.8/5.8

Recorded pIC50 (FF) (compound Cc1c(C(=O)NCC2(C)COC2)cc(-c2cc(C(C)(C)C)cc(C(C)(C)C)c2)n1CC1CCCCC1 ): 6.9/7.5/7.4

So, Cc1c(C(=O)NCCCCN2CCOCC2)cc(-c2cc(C(C)(C)C)cc(C(C)(C)C)c2)n1CC1CCCCC1 ? Its pIC50 (FF) was 5.3/<4.7/<4.7

Reported pIC50 (FF) of COCC1(CNC(=O)c2cc(-c3cc(C(C)(C)C)cc(C4(C)CC4)c3)n(CC3CCCCC3)c2C)COC1 : 6.7/7.3/7.4

Summary for this compound, Cc1c(C(=O)NCC2(O)CCOCC2)cc(-c2ccc(S(=O)(=O)NC(C)(C)C)c(C(C)(C)C)c2)n1CC1CCCCC1 : pIC50 (FF) is 6.2/7.5/7.5
